assay: Antiplatelet activity in Mus musculus Laca (mouse) platelet assessed as bleeding time at 60 mg/kg, po after 1 hr by tail transaction bleeding test (reference value: 3.2 +/- 0.218 min); assay type: functional
experimentalReadout: Time
Entry format: amount then unit.

Task: Fill blank: measured Time of the compound O=C1CCC(c2ccc(NCc3ccccc3O)cc2)=NN1 is ____.
Result: 9.2 min

Task: Fill blank: measured Time of the compound COc1cc(CNc2ccc(C3=NNC(=O)CC3)cc2)ccc1O is ____.
Result: 7.3 min

Task: Fill blank: measured Time of the compound O=C1CCC(c2ccc(NCc3ccncc3)cc2)=NN1 is ____.
Result: 7 min

# evaluate next
Task: Fill blank: measured Time of the compound COc1ccc(CNc2ccc(C3=NNC(=O)CC3)cc2)cc1OC is ____.
Result: 7.1 min
